biological target: tRNA threonylcarbamoyladenosine biosynthesis protein TsaE (Escherichia coli (strain K12)); test: qHTS Assay for Inhibitors of YjeE; conditions: purified YjeE enzyme, qHTS inhibition assay
Screen size: about 71,000 compounds; about 35 (0.05%) were called active. Only a sample is shown.
quantity-measured: outcome

Below are worked cases with known answers.
>>> print(df.to_string())
                                   compound  recorded_result
0        Cc1ccc(O)c(NC(=O)COc2cc(C)ccc2C)c1         inactive
1  COc1cc(Cl)c(C)cc1NC(=O)CSc1nnc(-c2ccco2)n1CC(C)C         inactive
2  Cc1nc(CNS(=O)(=O)c2ccc(Oc3ccccc3)cc2)cs1         inactive
3            CCCCC(CC)CN (stereo not drawn)         inactive
4   O=c1cnc2cnc(Nc3ccccc3)nc2n1Cc1ccc(F)cc1         inactive
5  CC(=NCc1ccc2c(c1)OCO2)C1=C(O)c2ccccc2C1=O         inactive

INPUT: Provide measured outcome value, entry: O=C(Cl)c1ccc([N+](=O)[O-])cc1
OUTPUT: inactive

INPUT: Return outcome for the following compound: CC(C)(CNCC(O)c1ccccc1)N1CCOCC1 (stereo not drawn)
OUTPUT: inactive

INPUT: Provide outcome value for the following compound: O=C(O)c1ccc(C(=O)c2ccccc2C(=O)O)cc1C(=O)O
OUTPUT: inactive

INPUT: Specify measured outcome for Cc1cc(Cl)ccc1OCC(=O)Oc1c(Cl)c(Cl)c(Cl)c(Cl)c1Cl .
OUTPUT: inactive

INPUT: Answer with the recorded outcome of CCOC(=O)c1ccc(NC(=O)CS(=O)(=O)c2cn(CC)c3ccccc23)cc1 only.
OUTPUT: inactive

INPUT: State, in one line, measured outcome of Cc1ccc(N(CC(O)CN2CCCC2)S(=O)(=O)c2ccccc2)cc1 (stereo not drawn)
OUTPUT: inactive

INPUT: Hello, please tell me recorded outcome for this one: CCCCNC(=O)CSc1nccn1Cc1ccccc1
OUTPUT: inactive
